test system: NCI-H460 lung; assay: NCI tumour cell line growth inhibition, 48 h
Readout type: TGI

> print(dat)
                                    compound  recorded.value
 1  CC(=O)N(CC(=O)C(=O)NNc1ccoc1)c1ccc(Cl)cc1        > 100 µM
 2  COCCOCOC(C)(C)[C@H](CCO)O[Si](c1ccccc1)(c1ccccc1)C(C)(C)C         22.3 µM
 3  CC(=O)Nc1ccc(S(=O)(=O)NN(C)S(=O)(=O)c2ccc(C)cc2)cc1        > 100 µM
 4     CS(=O)(=O)C1(Br)S(=O)(=O)OCCOS1(=O)=O        > 100 µM
 5  COc1cc(-c2cc(=O)c3ccccc3[nH]2)cc(OC)c1OC         > 75 µM
 6  C[C@H]1CN(C2COC2)CCN1c1ccc(Nc2cc(-c3ccnc(N4CCn5c(cc6c5CC(C)(C)C6)C4=O)c3CO)cn(C)c2=O)nc1        > 100 µM
 7  c1cc(CN2CCNCCNCCNCC2)cc(CN2CCNCCNCCNCC2)c1        > 100 µM
 8  BrCc1ccc(CBr)c2c1-c1c(CBr)ccc3ccc(CBr)c-2c13        > 100 µM
 9  CSC1=Nc2c(c(C)c(-c3ccccc3)n2COC(CO)CO)C2=NC(=O)CN12        > 100 µM
10  O=S(=O)(NCCCNc1nccc(-c2c(-c3ccc(F)cc3)nc3sccn23)n1)c1ccc(F)cc1        > 100 µM
11  C=CC[N+]1(CC)CCN=C1CCCCCCCCCCCCCCCCC (stereo unspecified)         1.46 µM
12  c1ccc(C2=C(c3ccccc3)Sc3nnc(CCCCCCCCc4nnc5n4NC(c4ccccc4)=C(c4ccccc4)S5)n3N2)cc1        > 100 µM
13  O=C(/C=C(\Nc1ccccc1O)c1ccc(Br)cc1)C(Cl)(Cl)Cl         12.9 µM
14  O=C1C(Nc2cccc(O)c2)=C(Sc2ccccc2)C(=O)N1Cc1ccccc1           29 µM
15  COC(=O)CCC(NC(=S)N/N=C(\C)c1cnccn1)C(=O)OC (stereo unspecified)        > 100 µM
16  CC1SC(c2ccc(Cl)cc2)N(CCc2cccs2)C1=O (stereo unspecified)         3.26 µM
17  O=c1n(-c2ccccc2)c(=O)n2c(-c3ccccc3)c(-c3ccccc3)n12        > 100 µM
18         CC(=O)N(O)c1ccc(/C=C/c2ccccc2)cc1         8.39 µM
19              S=C(N/N=C/c1ccccn1)N1CCCCCC1        0.211 µM
20  CN(C)CC(/C(Cc1ccccc1)=N\NC(=S)NN)c1ccccc1 (stereo unspecified)        > 100 µM
21  CC(C)N(C(=O)C12C3C4C1C1C2C3C41C(=O)N(C(C)C)C(C)C)C(C)C (stereo unspecified)         > 50 µM

---

tested on: CCRF-CEM leukemia; test: NCI tumour cell line growth inhibition, 48 h
Readout type: TGI (µM)

> print(dat)
                                    compound  comparator  recorded.value
 1  CCCCN(C)C(=O)C1=C(C)NC(C)=C(C(=O)N(C)CCCC)C1           >             100
 2  CN(C)C(F)=PC(F)(F)F (configuration not stated)           >             100
 3  O=c1[nH]c(=O)n(C2C(CO)OC(CO)C2O)cc1F (configuration not stated)           >             100
 4  COc1cc(C(=O)/C=C/c2c(C(F)(F)F)nc3ccccn23)cc(OC)c1OC           >             100
 5  Cc1c(C2=NN=C(N=Nc3c(O)cccc3O)/C2=C/c2ccccc2)c(=O)n(-c2ccccc2)n1C           >             100
 6  CC1SC(c2ccc(Cl)cc2)N(CCc2cccs2)C1=O (configuration not stated)           =            11.3
 7  O=S(=O)(NCCCNc1cc(-c2cn(-c3ccccc3)nc2-c2cccc(O)c2)ccn1)c1ccc(F)cc1           =            9.41
 8  C=C1C=CC2(Br)OC3CC(C)(Cl)C(Br)CC13C2(C)C (configuration not stated)           =            47.5
 9  CC(C)(C)c1cc(C(=O)O)c2c(c1)C(=O)OC2(c1ccccc1)c1ccccc1C(=O)O (configuration not stated)           >             100
10  CC(C)OC(=O)C1Cc2c([nH]c3ccccc23)C(c2ccccc2)N1 (configuration not stated)           >             100
11  NC(CCCCNCc1ccccc1O)C(=O)O (configuration not stated)           >             100
12           Nc1c(Cl)cc(-c2nc3ccccc3s2)cc1Cl           >             100
13  COc1ccc(NC(=O)C(=O)Cc2nc3ccc(C(=O)c4ccccc4)cc3[nH]c2=O)c([N+](=O)[O-])c1           =            61.4
14  COc1c(CC=C(C)C)c(O)c(C(CC(C)C)c2c(O)c(CC=C(C)C)c(O)c(C(C)=O)c2O)c(O)c1C(C)=O (configuration not stated)           =            1.65
15  C[C@H]1C[C@H]2[C@@H]3CCC4=CC(=O)C=C[C@]4(C)C3=CC[C@]2(C)[C@@]1(O)C(=O)CO           >             100
16  O=C(CO)C1CC2C=CC1C2 (configuration not stated)           >             100
17  CCCCCCCCCCCCC(O)C(=O)O (configuration not stated)           >             100
18  COC(=O)CCC(NC(=S)N/N=C(\C)c1cnccn1)C(=O)OC (configuration not stated)           =            58.1
19  O=[N+]([O-])c1cc(Cc2cc([N+](=O)[O-])c3cccnc3c2O)c(O)c2ncccc12           =            6.39
20  CN1CCC/C1=C1/C(=O)N(c2ccccc2)N=C1c1ccc[nH]1           >             100
21  O=C(/C=C(\Nc1ccccc1O)c1ccc(Br)cc1)C(Cl)(Cl)Cl           =            36.7
22        c1ccc(C2CCCCC2)c(OCCCCCN2CCNCC2)c1           =             7.9

---

test system: T-47D breast; assay: NCI tumour cell line growth inhibition, 48 h
Readout type: GI50

> print(dat)
                            substance.smiles  recorded.value
 1  O=S(=O)(NCCCNc1nccc(-c2c(-c3ccc(F)cc3)nc3sccn23)n1)c1ccc(F)cc1         2280 nM
 2  c1ccc2c(CNCCN3CCNCC3)c3ccccc3c(CNCCN3CCNCC3)c2c1        19900 nM
 3  COc1ccc2c(c1)C(=O)c1c-2c(=O)n(CCCN(C)C)c2cc(OC)c(OC)cc12     > 100000 nM
 4  COc1cc(-c2ncn(/C=C\c3nnco3)n2)cc(C(F)(F)F)c1          571 nM
 5  COc1cc(C(=O)/C=C/c2c(C(F)(F)F)nc3ccccn23)cc(OC)c1OC         3520 nM
 6  O=C1C(Nc2cccc(O)c2)=C(Sc2ccccc2)C(=O)N1Cc1ccccc1         1840 nM
 7                              [Cl][Cu][Cl]      > 10000 nM
 8    COC1=C(OC)C(=O)C(CCCCCCCCCCO)=C(C)C1=O         2440 nM
 9  O=S(=O)(O)c1ccc2cc3nn(-c4ccc(/C=C/c5ccc(-n6nc7cc8ccc(S(=O)(=O)O)cc8cc7n6)cc5S(=O)(=O)O)c(S(=O)(=O)O)c4)nc3cc2c1     > 100000 nM
10  O=C(c1ccco1)c1c(C(F)(F)F)n([O-])c2cc(F)c(F)cc2[n+]1=O          782 nM

---

test system: DMS 273 small cell lung; assay: NCI tumour cell line growth inhibition, 48 h

Compound	Unit abbrev	Comparator	TGI
Cc1nnc(N/N=C(/C(=O)C(C#N)c2ccc(Cl)cc2)C(C#N)c2ccc(Cl)cc2)n1N (stereo unspecified)	µM	=	34
Cc1c(C2=NN=C(N=Nc3c(O)cccc3O)/C2=C/c2ccccc2)c(=O)n(-c2ccccc2)n1C	µM	>	100
CC(C)=CC(=O)OC1C2C(C)=CC(O)C(O)C2(C)C2C3(O)OCC24C(CC(=O)OC14)C(C)C3O (stereo unspecified)	µM	=	0.101
O=C(CO)C1CC2C=CC1C2 (stereo unspecified)	µM	>	100
CCc1ccccc1NC(=O)CC1NC(=O)CS1 (stereo unspecified)	µM	>	100
O=C(O)C12CC3CC(CC(F)(C3)C1)C2	µM	>	100
CCOC(=O)C(CCCNC(=O)OC(C)(C)C)N(Cc1ccc(OC)cc1OC)C(=O)CC(=O)CP(=O)(OCC)OCC (stereo unspecified)	µM	>	100
Cn1nc(-c2ccccc2)c(C(=O)/C=C/c2ccc(Cl)cc2)c(N2CCOCC2)c1=O	µM	=	13.8
c1ccc2cc3c(cc2c1)OP1(Oc2cccc4cccnc24)(O3)Oc2cc3ccccc3cc2O1	µM	=	12.4
CC(=O)OCC(CC[CH2][Sn]([Cl])([Cl])[c]1ccccc1)OC(C)=O (stereo unspecified)	µM	=	43.3
